Listed molecules paired with reported pIC50
Target: human SCD1 (Homo sapiens (Human))
Sequence (O00767 whole entry): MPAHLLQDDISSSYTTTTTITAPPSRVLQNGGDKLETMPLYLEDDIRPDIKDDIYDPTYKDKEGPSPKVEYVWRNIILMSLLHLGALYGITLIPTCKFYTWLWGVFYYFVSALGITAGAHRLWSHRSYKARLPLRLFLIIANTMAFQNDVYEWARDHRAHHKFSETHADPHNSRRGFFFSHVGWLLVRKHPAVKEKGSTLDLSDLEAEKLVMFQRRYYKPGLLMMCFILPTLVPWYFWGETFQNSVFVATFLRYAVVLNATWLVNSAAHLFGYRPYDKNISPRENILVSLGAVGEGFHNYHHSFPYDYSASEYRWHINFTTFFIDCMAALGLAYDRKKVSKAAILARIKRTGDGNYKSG
Assay: Yeast growth assay, strain expressing human SCD1 as the sole desaturase (reduced growth as surrogate for SCD inhibition)
Conditions: yeast with OLE1 deleted expressing human SCD1 from a plasmid; growth read as OD600 after 40 h at 30° C.; top drug concentration 33.3 μM
pIC50: −log10 of the molar value.

Examples with answers:
                                   molecule  measure_name  measured_value
0  O=C(Nc1cnn(Cc2cc(F)ccc2C(F)(F)F)c1)c1cc(-c2ncccc2F)on1         pIC50          < 4.35
1  O=C(Nc1cnn(Cc2cccnc2)c1)c1cc(-c2ccccc2)on1         pIC50          < 4.35
2   O=C(c1cc(-c2ccccn2)on1)N1CC(c2ccccc2)C1         pIC50            5.58
3  Cc1csc(-c2cc(C(=O)Nc3cnn(Cc4ccccc4)c3)no2)n1         pIC50          < 4.35
4  N#Cc1ccccc1-c1cc(C(=O)Nc2cnn(Cc3ccccc3)c2)no1         pIC50          < 4.35

[Q] Param readout= pIC50; system= human SCD1 (Homo sapiens (Human)); entry= O=C(c1cc(-c2ccccc2)on1)N1CCC[C@H]1c1ccccc1 ; returns value.
[A] 4.52

[Q] human SCD1 (Homo sapiens (Human)) / pIC50 / Cc1ccncc1Cn1cc(NC(=O)c2cc(-c3ccccc3F)on2)cn1 : value?
[A] < 4.35

[Q] So what pIC50 did O=C(Nc1cnn(Cc2ccccc2)c1)c1noc2c1CCCC2 get with human SCD1 (Homo sapiens (Human))?
[A] 8.00

[Q] Form field: pIC50 recorded for O=C(c1cc(-c2ccc3c(c2)OCO3)on1)N1CCC(O)(c2ccccc2)CC1 with human SCD1 (Homo sapiens (Human)) (enter value)
[A] < 4.35

[Q] Write down the reported pIC50 of O=C(c1cc(-c2ccco2)on1)N1CC(Oc2ccccc2)C1 , test system: human SCD1 (Homo sapiens (Human)).
[A] 6.55

[Q] # get_value(readout= pIC50, system= human SCD1 (Homo sapiens (Human))) for O=C(Nc1cnn(Cc2ccc(F)c(F)c2)c1)c1cc(-c2ccccn2)on1
[A] 4.59

[Q] Form field - read-out: pIC50; system: human SCD1 (Homo sapiens (Human)); submitted item: O=C(Nc1cnn(Cc2ccccc2)c1)c1cc(-c2c(F)cccc2F)on1
[A] < 4.35

[Q] Lab note: need pIC50 with human SCD1 (Homo sapiens (Human)) for entry O=C(Nc1cnn(Cc2cccc(F)c2)c1)c1cc(C2=CCCCC2)on1 , please look it up.
[A] 7.96

[Q] Request body: readout pIC50, system human SCD1 (Homo sapiens (Human)), query COC1CCN(c2cc(C(=O)N3CC(c4ccccc4)C3)no2)CC1 . Return the value.
[A] < 4.35

[Q] Kindly state the measured pIC50 obtained for O=C(c1cc(-c2cccnc2)on1)N1CCC[C@H]1c1ccccc1 with human SCD1 (Homo sapiens (Human)).
[A] 4.48

[Q] # value lookup — system human SCD1 (Homo sapiens (Human)), readout pIC50, item CC(C)(C)OC(=O)N1CCN(C(=O)c2cc(-c3ccc4c(c3)OCO4)on2)CC1
[A] < 4.35

[Q] Please provide the recorded pIC50 for O=C(c1cc(-c2ccc3c(c2)OCO3)on1)N1CCCC1c1ccncc1F (stereo not drawn) , tested on human SCD1 (Homo sapiens (Human)).
[A] < 4.35

[Q] What measured pIC50 is associated with O=C(c1cc(-c2ccccc2)on1)N1CC(Nc2ccccc2)C1 on human SCD1 (Homo sapiens (Human))?
[A] < 4.35
